Listing of entries alongside the reported Sample B (Probe) Signal.
Target: T1, native human ESRRG protein (Estrogen-receptor related receptor gamma) (human, UniProt P62508 229-458, limits assumed)
T1 construct: the screened protein is called 'native human ESRRG protein'; also called ESSRG; ERRγ
T1 sequence (looked up): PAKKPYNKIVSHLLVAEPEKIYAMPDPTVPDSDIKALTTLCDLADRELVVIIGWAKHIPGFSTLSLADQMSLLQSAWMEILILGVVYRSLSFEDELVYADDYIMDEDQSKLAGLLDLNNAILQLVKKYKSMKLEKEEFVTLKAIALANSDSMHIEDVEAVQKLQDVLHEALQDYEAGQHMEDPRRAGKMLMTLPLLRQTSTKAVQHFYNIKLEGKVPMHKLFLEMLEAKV
Assay: peptide microarray, Iteration 1; bound ESRRG detected with fluorescent anti-ESRRG mAb
Where no end group is shown, it is not given here.
quantity: Sample B (Probe) Signal

• Ac-ANNVSLLH = 1820 fluorescence intensity units
• Ac-NSLSWHLL = 1040 fluorescence intensity units
• Ac-ANNIQLLH = 806 fluorescence intensity units
• Ac-AIRLHLMG = 943 fluorescence intensity units

Origin of values: patent US20130053541A1
